biological target: recombinant active full-length human MEK7 (Homo sapiens); construct: recombinant active full-length human MEK7 (Carna Biosciences); purchased Carna Biosciences; assay: ADP-Glo kinase activity assay, MEK7 with JNK1 substrate; type: biochemical; conditions: 30 min preincubation; read-out: MEK7 IC50
reported property: pIC50
The value called pIC50 is obtained by taking minus log10 of the concentration in mol/L.

Use these answered entries as a reference point.
1) O=C(CCl)Nc1cccc(Oc2cc(NCc3ccc(F)c(F)c3)ncn2)c1 [Compound 29]
7.38
2) CNc1cc(Oc2cccc(NC(=O)CCl)c2)ncn1 [Compound 8]
7.22
3) C=CC(=O)Nc1ccc(Oc2cc(NC)ncn2)cc1 [Compound 7]
7.22

API: the following record is the query input.
Field request: pIC50 | item: O=C(CCl)Nc1cccc(Oc2cc(NCc3ccccc3)ncn2)c1 [Compound 25]
8.00

====

Molecular target: recombinant active full-length human MEK7 (Homo sapiens, UniProt O14733)
Construct: recombinant active full-length human MEK7 (Carna Biosciences); purchased Carna Biosciences
Sequence (O14733 1-419): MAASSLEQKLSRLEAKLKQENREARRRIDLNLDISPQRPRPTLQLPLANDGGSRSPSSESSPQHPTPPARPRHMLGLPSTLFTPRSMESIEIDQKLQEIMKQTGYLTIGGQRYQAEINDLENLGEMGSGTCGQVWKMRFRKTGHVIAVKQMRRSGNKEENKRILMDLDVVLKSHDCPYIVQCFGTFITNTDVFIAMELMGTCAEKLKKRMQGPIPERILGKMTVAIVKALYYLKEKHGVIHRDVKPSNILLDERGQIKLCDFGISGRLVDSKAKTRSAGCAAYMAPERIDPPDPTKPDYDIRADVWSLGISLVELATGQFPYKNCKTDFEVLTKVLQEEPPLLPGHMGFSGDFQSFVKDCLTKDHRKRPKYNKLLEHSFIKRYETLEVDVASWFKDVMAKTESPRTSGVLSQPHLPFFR
Assay: ADP-Glo kinase activity assay, MEK7 with JNK1 substrate
Assay type: biochemical
Conditions: MEK7 IC50, second experiment (IC50±SEM, n=3), 30 min preincubation; second value in brackets
Below, each of the compounds is paired with its reported pIC50 value.
The value called pIC50 is obtained by taking minus log10 of the concentration in mol/L.

Field request: pIC50 | item: O=C(CCl)Nc1cccc(Oc2cc(NCc3ccccc3C(F)(F)F)ncn2)c1 [Compound 30]
5.89

Follow-up item: COc1ccc(CCNc2cc(Oc3cccc(NC(=O)CCl)c3)ncn2)cc1 [Compound 21]
6.18

Follow-up item: O=C(CCl)Nc1cccc(Oc2cc(NCCc3ccc(F)cc3)ncn2)c1 [Compound 20]
5.80

====

Target: recombinant active full-length human MEK7 (Homo sapiens, UniProt O14733)
Construct: recombinant active full-length human MEK7 (Carna Biosciences); purchased Carna Biosciences
Sequence (O14733 1-419): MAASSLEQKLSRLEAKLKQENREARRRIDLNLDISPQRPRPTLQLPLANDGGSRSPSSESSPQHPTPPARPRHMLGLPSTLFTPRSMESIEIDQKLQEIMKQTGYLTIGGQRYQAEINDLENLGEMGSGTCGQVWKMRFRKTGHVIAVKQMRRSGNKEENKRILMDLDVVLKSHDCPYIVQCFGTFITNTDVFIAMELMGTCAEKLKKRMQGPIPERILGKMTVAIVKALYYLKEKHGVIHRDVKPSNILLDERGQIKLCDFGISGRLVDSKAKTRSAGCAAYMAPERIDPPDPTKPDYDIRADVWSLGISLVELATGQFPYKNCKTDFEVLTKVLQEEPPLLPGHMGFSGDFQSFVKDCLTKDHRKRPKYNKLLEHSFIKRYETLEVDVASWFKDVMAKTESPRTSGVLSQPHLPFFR
Test: ADP-Glo kinase activity assay, MEK7 with JNK1 substrate
Type: biochemical
Conditions: MEK7 IC50, first experiment (IC50±SEM, n=3), 30 min preincubation; first value in brackets
Below, each of the compounds is paired with its reported IC50 value.
Kindly provide the numeric value in nM only, without the unit symbol.

Field request: IC50 | item: `O=C(CCl)Nc1cccc(Oc2cc(NCCc3ccccc3)ncn2)c1`
730

Follow-up item: `O=C(CCl)Nc1cccc(Oc2cc(NCc3ccc(F)cc3F)ncn2)c1`
140

Follow-up item: `COc1ccc(CCNc2cc(Oc3cccc(NC(=O)CCl)c3)ncn2)cc1`
1200

Follow-up item: `C=CC(=O)Nc1cccc(Oc2cc(NC)ncn2)c1`
230

Follow-up item: `O=C(CCl)Nc1cccc(Oc2cc(NCCc3ccc(F)cc3)ncn2)c1`
710

Follow-up item: `O=C(CCl)Nc1cccc(Oc2cc(NC3CCCC3)ncn2)c1`
350

Follow-up item: `Cc1ccc(CNc2cc(Oc3cccc(NC(=O)CCl)c3)ncn2)cc1`
420

Follow-up item: `O=C(CCl)Nc1cccc(Oc2cc(NCCc3c[nH]c4ccccc34)ncn2)c1`
300

Follow-up item: `CNc1cc(Oc2ccc(NC(=O)CCl)cc2)ncn1`
1500

Follow-up item: `O=C(CCl)Nc1cccc(Oc2cc(NCc3cc(F)cc(F)c3)ncn2)c1`
110
